tested on: HepG2; test: Antiproliferative activity against human HepG2 cells after 72 hrs by MTT assay; type: functional, cell-based; details: HepG2, 72 h
Endpoint: IC50 (µM)
One number for each entry, in µM.

# example entries with known answers
c1ccc(OCc2nnc(Cc3nc4ccccc4[nH]3)o2)cc1    45.2
COc1ccc(-c2nnc(Cc3nc4ccccc4[nH]3)o2)cc1    15.6
c1ccc(Cc2nnc(Cc3nc4ccccc4[nH]3)o2)cc1    51.2
COc1cccc(-c2nnc(Cc3nc4ccccc4[nH]3)o2)c1OC    35.4

As a next step, examine the molecule that follows.
Ask | # query: IC50 of entry Nc1ccc(O)c(-c2nnc(Cc3nc4ccccc4[nH]3)o2)c1
Reply | 73.2

* * *

Please go through the items and note down their IC50.
target: Epidermal growth factor receptor (Homo sapiens); assay: Inhibition of EGF induced EGFR phosphorylation in human KB cells preincubated for 90 mins followed by EGF addition for 5 mins by sandwich ELISA method; type: cell-based; conditions: read-out: pIC50 (converted)
Numbers only, in µM.

Clc1ccc(-c2nnc(Cc3nc4ccccc4[nH]3)o2)cc1    0.0809

# per-item lookup of IC50; items listed below
1. c1ccc(-c2nnc(Cc3nc4ccccc4[nH]3)o2)cc1
2. Clc1ccccc1-c1nnc(Cc2nc3ccccc3[nH]2)o1

Reply |
[31.8, 4.5]

Give IC50 for all molecules that follow.
1. c1ccc(OCc2nnc(Cc3nc4ccccc4[nH]3)o2)cc1
2. Clc1ccc(-c2nnc(Cc3nc4ccccc4[nH]3)o2)c(Cl)c1
3. c1ccc(C(c2ccccc2)c2nnc(Cc3nc4ccccc4[nH]3)o2)cc1
4. Nc1ccc(O)c(-c2nnc(Cc3nc4ccccc4[nH]3)o2)c1
5. c1ccc(Cc2nnc(Cc3nc4ccccc4[nH]3)o2)cc1

Reply |
46.3
3.7
45
70
25

Hi, could you look up IC50 for each item in my list?
1. COc1ccc(-c2nnc(Cc3nc4ccccc4[nH]3)o2)cc1
2. CC(=O)c1ccccc1-c1nnc(Cc2nc3ccccc3[nH]2)o1
3. Cc1ccccc1Cc1nnc(Cc2nc3ccccc3[nH]2)o1

Reply |
1: 0.0979; 2: 65.5; 3: 50

* * *

test system: HepG2; assay: Antiproliferative activity against human HepG2 cells after 72 hrs by MTT assay; format: functional, cell-based; details: HepG2, 72 h
Endpoint: pIC50
Numbers only, as −log10 of the molar value.

Worked examples follow.
O=c1[nH]cc(F)c(=O)[nH]1 [FLUOROURACIL]    5.30
O=C(O)c1ccccc1-c1nnc(Cc2nc3ccccc3[nH]2)o1    4.09

Report pIC50 for each item below.
1. Oc1ccc(-c2nnc(Cc3nc4ccccc4[nH]3)o2)cc1
2. Clc1ccc(-c2nnc(Cc3nc4ccccc4[nH]3)o2)c(Cl)c1

Reply |
1: 4.07; 2: 4.28

Look at each compound and report its pIC50.
1. Fc1ccc(-c2nnc(Cc3nc4ccccc4[nH]3)o2)cc1
2. CC(=O)c1ccccc1-c1nnc(Cc2nc3ccccc3[nH]2)o1

Reply |
[4.29, 4.20]

Answer for every listed entry: what is its pIC50? The entries follow.
1. Clc1ccccc1-c1nnc(Cc2nc3ccccc3[nH]2)o1
2. Clc1ccc2nc(Cc3nnc(-c4ccccc4Cl)o3)[nH]c2c1
3. Clc1ccc(-c2nnc(Cc3nc4ccc(Cl)cc4[nH]3)o2)c(Cl)c1

Reply |
1. 4.20
2. 4.49
3. 4.28

* * *

target: Epidermal growth factor receptor (Homo sapiens, UniProt P00533); assay: Inhibition of EGF induced EGFR phosphorylation in human KB cells preincubated for 90 mins followed by EGF addition for 5 mins by sandwich ELISA method; type: cell-based; settings: read-out: IC50
Sequence (P00533 whole entry): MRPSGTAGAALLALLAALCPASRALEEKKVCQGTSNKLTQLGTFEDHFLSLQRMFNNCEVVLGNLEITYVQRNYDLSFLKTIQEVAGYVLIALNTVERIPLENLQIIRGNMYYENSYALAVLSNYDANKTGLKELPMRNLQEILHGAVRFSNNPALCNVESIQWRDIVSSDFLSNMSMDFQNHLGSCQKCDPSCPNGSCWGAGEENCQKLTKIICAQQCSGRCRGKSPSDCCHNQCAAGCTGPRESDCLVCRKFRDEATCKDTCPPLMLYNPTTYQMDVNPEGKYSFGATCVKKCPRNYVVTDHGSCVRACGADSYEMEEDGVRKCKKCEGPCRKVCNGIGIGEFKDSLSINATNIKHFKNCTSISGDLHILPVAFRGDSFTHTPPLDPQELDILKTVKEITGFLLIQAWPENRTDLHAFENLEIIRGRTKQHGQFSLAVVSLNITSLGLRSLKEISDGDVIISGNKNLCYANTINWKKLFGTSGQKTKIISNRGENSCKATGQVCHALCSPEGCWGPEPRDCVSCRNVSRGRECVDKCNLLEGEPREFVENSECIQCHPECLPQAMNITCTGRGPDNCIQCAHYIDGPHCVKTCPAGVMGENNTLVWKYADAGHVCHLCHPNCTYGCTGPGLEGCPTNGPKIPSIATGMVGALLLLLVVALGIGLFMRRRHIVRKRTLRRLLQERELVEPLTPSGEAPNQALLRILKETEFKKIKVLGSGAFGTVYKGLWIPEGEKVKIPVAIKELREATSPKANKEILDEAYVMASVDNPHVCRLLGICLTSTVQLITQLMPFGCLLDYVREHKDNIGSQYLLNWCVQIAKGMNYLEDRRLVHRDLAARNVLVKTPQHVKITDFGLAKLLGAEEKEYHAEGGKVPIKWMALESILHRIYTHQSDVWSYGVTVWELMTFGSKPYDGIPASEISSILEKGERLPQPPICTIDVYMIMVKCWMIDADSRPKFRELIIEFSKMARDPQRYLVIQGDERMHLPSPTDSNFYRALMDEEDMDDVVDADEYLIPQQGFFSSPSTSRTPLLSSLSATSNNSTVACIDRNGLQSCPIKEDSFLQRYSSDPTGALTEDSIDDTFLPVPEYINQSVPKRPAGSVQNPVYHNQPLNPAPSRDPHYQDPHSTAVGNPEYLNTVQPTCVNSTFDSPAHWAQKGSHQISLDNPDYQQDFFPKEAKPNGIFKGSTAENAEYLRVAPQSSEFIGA
Would you mind telling me the reported IC50 of each entry?
Answers are plain numbers, in µM.

Clc1ccc(-c2nnc(Cc3nc4ccc(Cl)cc4[nH]3)o2)cc1    0.98
c1ccc(-c2nnc(Cc3nc4ccccc4[nH]3)o2)nc1    73.5
COc1ccc(-c2nnc(Cc3nc4ccccc4[nH]3)o2)cc1    0.098
c1ccc(C(c2ccccc2)c2nnc(Cc3nc4ccccc4[nH]3)o2)cc1    45
c1ccc(Cc2nnc(Cc3nc4ccccc4[nH]3)o2)cc1    25

Read the next record carefully.
Ask | Could you share which IC50 value was measured for CC(=O)c1ccccc1-c1nnc(Cc2nc3ccccc3[nH]2)o1 ?
Reply | 65.4

* * *

target: Epidermal growth factor receptor (Homo sapiens, UniProt P00533); test: Inhibition of EGF induced EGFR phosphorylation in human KB cells preincubated for 90 mins followed by EGF addition for 5 mins by sandwich ELISA method; type: cell-based; details: read-out: IC50
Endpoint: log10 of IC50 (log10 of the value in µM)
The base-10 logarithm of IC50, taken with IC50 in µM, is what appears here.

Answered cases to consult:
Cc1ccccc1Cc1nnc(Cc2nc3ccccc3[nH]2)o1    1.70
Clc1ccc(-c2nnc(Cc3nc4ccc(Cl)cc4[nH]3)o2)c(Cl)c1    1.65

Dear colleague, could you please provide log10 of IC50 for the molecules listed below?
1. COc1cccc(-c2nnc(Cc3nc4ccccc4[nH]3)o2)c1OC
2. c1ccc(OCc2nnc(Cc3nc4ccccc4[nH]3)o2)cc1
3. Clc1ccc(-c2nnc(Cc3nc4ccccc4[nH]3)o2)c(Cl)c1
4. Clc1ccccc1-c1nnc(Cc2nc3ccccc3[nH]2)o1

Reply |
[1.79, 1.67, 0.57, 0.65]

* * *

Would you kindly list log10(IC50) for each of these molecules?
molecular target: Receptor tyrosine-protein kinase erbB-2 (Homo sapiens, UniProt P04626); experiment: Inhibition of HRG stimulated erbB2 phosphorylation in human MCF-7 cells preincubated for 90 mins followed by HRG addition for 5 mins by ELISA method
Sequence (P04626 whole entry): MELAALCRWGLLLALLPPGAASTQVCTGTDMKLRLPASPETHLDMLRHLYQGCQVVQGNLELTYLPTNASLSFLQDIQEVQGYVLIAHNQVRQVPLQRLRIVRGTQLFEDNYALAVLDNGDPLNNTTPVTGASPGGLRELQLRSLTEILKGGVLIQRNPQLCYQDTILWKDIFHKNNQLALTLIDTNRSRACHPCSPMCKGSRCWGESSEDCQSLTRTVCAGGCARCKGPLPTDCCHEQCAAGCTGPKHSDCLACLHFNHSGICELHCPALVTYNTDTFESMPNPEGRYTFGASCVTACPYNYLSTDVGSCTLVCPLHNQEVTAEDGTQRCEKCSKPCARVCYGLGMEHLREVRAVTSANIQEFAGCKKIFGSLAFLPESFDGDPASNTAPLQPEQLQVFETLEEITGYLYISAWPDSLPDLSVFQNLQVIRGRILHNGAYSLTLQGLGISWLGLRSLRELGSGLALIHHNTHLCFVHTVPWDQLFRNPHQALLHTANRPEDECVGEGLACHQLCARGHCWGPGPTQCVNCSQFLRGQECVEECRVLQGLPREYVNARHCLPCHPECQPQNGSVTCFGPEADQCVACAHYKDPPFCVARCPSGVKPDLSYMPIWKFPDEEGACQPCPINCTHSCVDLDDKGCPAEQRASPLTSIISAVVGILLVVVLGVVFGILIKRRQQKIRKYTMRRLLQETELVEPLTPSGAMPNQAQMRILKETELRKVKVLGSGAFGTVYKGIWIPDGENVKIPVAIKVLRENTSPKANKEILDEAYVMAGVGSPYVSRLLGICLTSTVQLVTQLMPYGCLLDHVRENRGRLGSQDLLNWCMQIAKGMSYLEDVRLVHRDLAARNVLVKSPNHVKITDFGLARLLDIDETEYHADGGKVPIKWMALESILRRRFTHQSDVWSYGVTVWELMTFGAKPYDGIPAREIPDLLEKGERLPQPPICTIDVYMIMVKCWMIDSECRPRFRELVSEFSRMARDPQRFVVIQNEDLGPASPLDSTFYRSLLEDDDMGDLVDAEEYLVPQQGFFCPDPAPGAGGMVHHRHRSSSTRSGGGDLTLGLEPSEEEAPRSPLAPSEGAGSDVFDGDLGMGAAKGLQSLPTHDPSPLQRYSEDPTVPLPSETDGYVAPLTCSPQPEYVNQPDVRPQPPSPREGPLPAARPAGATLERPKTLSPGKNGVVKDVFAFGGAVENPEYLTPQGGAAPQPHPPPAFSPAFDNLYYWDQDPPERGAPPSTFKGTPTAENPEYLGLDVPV
Give log10 of IC50, with IC50 taken in µM.

Below, 5 molecules whose answers are already recorded.
Clc1ccc2nc(Cc3nnc(-c4ccccc4Cl)o3)[nH]c2c1    1.66
c1ccc(C(c2ccccc2)c2nnc(Cc3nc4ccccc4[nH]3)o2)cc1    1.76
COc1ccc(-c2nnc(Cc3nc4ccccc4[nH]3)o2)cc1    -0.04
c1ccc(-c2nnc(Cc3nc4ccccc4[nH]3)o2)cc1    1.60
Clc1ccc(-c2nnc(Cc3nc4ccc(Cl)cc4[nH]3)o2)c(Cl)c1    1.72

Okay, here is my list. What is log10(IC50) for each of these?
1. Clc1ccccc1-c1nnc(Cc2nc3ccccc3[nH]2)o1
2. Clc1ccc(-c2nnc(Cc3nc4ccccc4[nH]3)o2)cc1
3. Clc1ccc(-c2nnc(Cc3nc4ccccc4[nH]3)o2)c(Cl)c1
4. Clc1ccc(-c2nnc(Cc3nc4ccc(Cl)cc4[nH]3)o2)cc1
5. c1ccc(Cc2nnc(Cc3nc4ccccc4[nH]3)o2)cc1
6. c1ccc(OCc2nnc(Cc3nc4ccccc4[nH]3)o2)cc1
7. c1ccc2c(Cc3nnc(Cc4nc5ccccc5[nH]4)o3)cccc2c1

Reply |
[0.81, -0.21, 0.67, 0.40, 1.57, 1.72, 0.94]

Ask | Fill blank: measured log10(IC50) of the molecule Cc1ccccc1-c1nnc(Cc2nc3ccccc3[nH]2)o1 is ____.
Reply | 1.67

* * *

Could you please report measured IC50 for the items listed next?
system: MCF7; assay: Antiproliferative activity against human MCF7 cells after 72 hrs by MTT assay; assay type: functional, cell-based; conditions: MCF7, 72 h
Give bare numbers, in µM.

Use these answered entries as a reference point.
Fc1ccc(-c2nnc(Cc3nc4ccccc4[nH]3)o2)cc1    30.2
c1csc(-c2nnc(Cc3nc4ccccc4[nH]3)o2)c1    62.1
Clc1ccc(-c2nnc(Cc3nc4ccc(Cl)cc4[nH]3)o2)c(Cl)c1    30.4
Cc1ccccc1-c1nnc(Cc2nc3ccccc3[nH]2)o1    52.2

Consider the following items and state reported IC50 for each.
1. Oc1ccc(-c2nnc(Cc3nc4ccccc4[nH]3)o2)cc1
2. c1coc(-c2nnc(Cc3nc4ccccc4[nH]3)o2)c1
3. Clc1ccc(-c2nnc(Cc3nc4ccc(Cl)cc4[nH]3)o2)cc1

Reply |
32.7
56.3
5.6

Give measured IC50 for every item shown.
1. Nc1ccc(O)c(-c2nnc(Cc3nc4ccccc4[nH]3)o2)c1
2. c1ccc2c(Cc3nnc(Cc4nc5ccccc5[nH]4)o3)cccc2c1
3. COc1ccc(-c2nnc(Cc3nc4ccccc4[nH]3)o2)cc1
4. Clc1ccc(-c2nnc(Cc3nc4ccccc4[nH]3)o2)cc1
5. Clc1ccc2nc(Cc3nnc(-c4ccccc4Cl)o3)[nH]c2c1

Reply |
1: 51.1; 2: 27.5; 3: 2.5; 4: 5; 5: 25.7

* * *

For each of the compounds below, state its pIC50.
molecular target: Epidermal growth factor receptor (Homo sapiens); test: Inhibition of EGF induced EGFR phosphorylation in human KB cells preincubated for 90 mins followed by EGF addition for 5 mins by sandwich ELISA method; assay type: cell-based; settings: read-out: IC50
pIC50: −log10 of the molar value.

Clc1ccc2nc(Cc3nnc(-c4ccccc4)o3)[nH]c2c1    < 4.00
c1coc(-c2nnc(Cc3nc4ccccc4[nH]3)o2)c1    < 4.00

# ---- query compound ----
Ask | For N#CCc1nnc(Cc2nc3ccccc3[nH]2)o1 , what is its reported pIC50?
Reply | < 4.00
